Source listed as patent EP1021444B1.

- target entity: Human V2 Vasopressin Receptor (Homo sapiens)
- Construct: expressed in transfected cells; host or cells: mouse fibroblast cell line LV-2 (membrane preparation)
- test summary: Binding to membranes of mouse fibroblast cell line (LV-2) transfected with the cDNA expressing the human V2 vasopressin receptor
- recorded conditions: read-out: Vasopressin Human V2 Receptor Binding
pIC50: −log10 of the molar value.

{"structure": "Cc1ccc(F)cc1C(=O)Nc1ccc(C(=O)N2Cc3ccc(C(=O)NN(C)C)n3Cc3ccccc32)c(Cl)c1", "pIC50": 7.82}
{"structure": "Cc1ccc(F)cc1C(=O)Nc1ccc(C(=O)N2Cc3ccc(C(=O)O)n3Cc3ccccc32)c(Cl)c1", "pIC50": 7.85}
{"structure": "CN(C)CCN(C)C(=O)c1ccc2n1Cc1ccccc1N(C(=O)c1ccc(NC(=O)c3ccccc3-c3ccccc3)cc1Cl)C2", "pIC50": 8.26}

====

Quick list: log10(IC50) per entry.
- target entity: Human V2 Vasopressin Receptor (Homo sapiens, UniProt P30518)
- Construct: expressed in transfected cells; host or cells: mouse fibroblast cell line LV-2 (membrane preparation)
- Sequence (P30518 whole entry): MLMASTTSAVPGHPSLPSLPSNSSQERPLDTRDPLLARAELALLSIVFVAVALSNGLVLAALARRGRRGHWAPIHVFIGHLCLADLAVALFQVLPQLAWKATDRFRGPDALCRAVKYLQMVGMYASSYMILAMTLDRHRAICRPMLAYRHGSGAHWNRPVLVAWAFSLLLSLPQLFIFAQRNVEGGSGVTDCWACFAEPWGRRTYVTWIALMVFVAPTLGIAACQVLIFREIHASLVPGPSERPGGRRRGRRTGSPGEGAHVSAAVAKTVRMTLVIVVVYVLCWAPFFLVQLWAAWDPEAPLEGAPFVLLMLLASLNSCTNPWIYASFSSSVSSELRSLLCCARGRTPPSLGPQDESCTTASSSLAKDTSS
- test summary: Binding to membranes of mouse fibroblast cell line (LV-2) transfected with the cDNA expressing the human V2 vasopressin receptor
property measured: log10(IC50) (log10 of the value in nM)

{"compound": "O=C(Nc1ccc(C(=O)N2Cc3ccc(C(=O)N4CCC(N5CCOCC5)CC4)n3Cc3ccccc32)c(Cl)c1)c1ccccc1-c1ccccc1 [Example 15]", "log10(IC50)": 1.03}
{"compound": "Cc1ccc(F)cc1C(=O)Nc1ccc(C(=O)N2Cc3ccc(C(=O)[N-][N+](C)(C)C)n3Cc3ccccc32)c(Cl)c1 [Example 5]", "log10(IC50)": 1.78}
{"compound": "O=C(O)CNC(=O)c1ccc2n1Cc1ccccc1N(C(=O)c1ccc(NC(=O)c3ccccc3-c3ccccc3)cc1Cl)C2 [Example 18]", "log10(IC50)": 0.88}
{"compound": "O=C(Nc1ccc(C(=O)N2Cc3ccc(C(=O)N4CCC(N5CCCCC5)CC4)n3Cc3ccccc32)c(Cl)c1)c1ccccc1-c1ccccc1 [Example 11]", "log10(IC50)": 0.97}
{"compound": "CN(C)NC(=O)c1ccc2n1Cc1ccccc1N(C(=O)c1ccc(NC(=O)c3ccccc3-c3ccccc3)cc1Cl)C2 [Example 8]", "log10(IC50)": 0.93}
{"compound": "Cc1ccc(F)cc1C(=O)Nc1ccc(C(=O)N2Cc3ccc(C(=O)N[N+](C)(C)C)n3Cc3ccccc32)c(Cl)c1 [Example 4]", "log10(IC50)": 1.78}
{"compound": "O=C(Nc1ccc(C(=O)N2Cc3ccc(C(=O)C(Cl)(Cl)Cl)n3Cc3ccccc32)c(Cl)c1)c1ccccc1-c1ccccc1 [Example 6]", "log10(IC50)": 0.75}
